B1: E3 ubiquitin-protein ligase NEDD4, residues 836 to 881; numbered along this chain, P46934 (parent)
chain: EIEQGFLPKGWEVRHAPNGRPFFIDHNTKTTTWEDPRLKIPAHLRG

variants of: B1; experiment: abundance fitness (aPCA) (normalised: wild type 0, dead -1); higher = more abundant; growth selection in yeast, the domain comes from the species named; settings: Homo sapiens
Parameter threshold = -0.5. Response is YES when abundance fitness meets or exceeds it, else NO.

{"columns": ["variant_spec", "class_name"],
 "data": [
  ["W33A", "YES"],
  ["L44I", "YES"],
  ["W33V", "YES"],
  ["H26I", "YES"],
  ["N27T", "YES"],
  ["F22R", "NO"],
  ["N27W", "NO"],
  ["F22H", "NO"],
  ["W33G", "YES"],
  ["W33Q", "YES"],
  ["G19Q", "NO"],
  ["R37Q", "NO"],
  ["T32V", "YES"],
  ["T32Y", "NO"],
  ["I40L", "YES"]
]}
